EXPERIMENTAL_SYSTEM: human erythropoietin receptor on human erythroleukemic cells (UT-7/Epo, F36E) (human), P19235
Sequence (P19235 25-508, stated change not applied): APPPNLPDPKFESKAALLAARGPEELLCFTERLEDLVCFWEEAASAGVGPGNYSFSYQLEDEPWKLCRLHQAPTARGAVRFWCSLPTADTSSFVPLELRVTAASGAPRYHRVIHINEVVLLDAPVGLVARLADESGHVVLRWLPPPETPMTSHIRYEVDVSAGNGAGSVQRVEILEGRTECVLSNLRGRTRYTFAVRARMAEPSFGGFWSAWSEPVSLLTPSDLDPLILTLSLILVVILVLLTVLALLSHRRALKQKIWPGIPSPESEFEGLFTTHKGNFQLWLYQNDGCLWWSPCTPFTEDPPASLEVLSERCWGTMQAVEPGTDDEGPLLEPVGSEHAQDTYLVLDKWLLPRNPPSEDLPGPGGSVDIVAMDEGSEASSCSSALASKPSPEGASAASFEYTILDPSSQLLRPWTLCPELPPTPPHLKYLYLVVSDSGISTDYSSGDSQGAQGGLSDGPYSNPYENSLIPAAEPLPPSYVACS
TEST: cell-based or functional assay
Measured EC50, cell proliferation assay, listed per entry.
Number only, in nM; omit the unit.

## Task Would you kindly share the measured EC50, cell proliferation assay for Ab12.123 (antibody, IgG2, V domains shown) VH: QVQLQESGPGLVKPSETLSLTCTVSGASISSYYWSWIRQPPGKGLEWIGYIGYEGSTNYNPSLKSRVTISVDTSKNQFSLKLRSVTAADTAVYYCARERLGIGDYWGQGTLVTVSS VL: DIQLTQSPSSLSASVGDRVTITCRASQGIRNDLGWYQQKPGKAPKRLIYAASSLQSGVPSRFSGSGSGTEFTLTISSLQPEDFATYYCLQHNTYPPTFGQGTKVEIK ?
## Result 0.91

## Task Would you kindly share the measured EC50, cell proliferation assay for Ab12.121 (antibody, IgG2, V domains shown) VH: QVQLQESGPGLVKPSETLSLTCTVSGASISSYYWSWIRQPPGKGLEWIGYIGGSGSTNYNPSLKSRVTISVDTSKNQFSLKLRSVTAADTAVYYCARERLGIGDYWGQGTLVTVSS VL: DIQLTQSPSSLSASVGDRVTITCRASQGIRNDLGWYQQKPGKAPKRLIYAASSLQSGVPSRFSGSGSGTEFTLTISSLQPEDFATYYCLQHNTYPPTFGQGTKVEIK ?
## Result 0.465

## Task Would you kindly share the measured EC50, cell proliferation assay for Ab12.120 (antibody, IgG2, V domains shown) VH: QVQLQESGPGLVKPSETLSLTCTVSGASISSYYWSWIRQPPGKGLEWIGYIYYEGSTNYNPSLKSRVTISVDTSKNQFSLKLRSVTAADTAVYYCARERLGIGDYWGQGTLVTVSS VL: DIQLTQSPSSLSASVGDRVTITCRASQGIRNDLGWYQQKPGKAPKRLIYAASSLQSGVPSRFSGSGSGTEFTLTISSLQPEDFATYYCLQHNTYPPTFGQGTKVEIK ?
## Result 0.34
